assay: in vivo; details: mouse, in vivo, ip
Reported MTD is given for each of the following molecules.
Just the number in mg/kg, nothing appended.

CN(Cc1cnc2nc(N)nc(N)c2n1)c1ccc(C(=O)N[C@@H](CCC(=O)O)C(=O)O)cc1 [MTX, methotrexate] ... 55
CC(=O)O[C@H]1C(=O)[C@@]2(C)[C@H]([C@H](OC(=O)c3ccccc3)[C@]3(O)C[C@H](OC(=O)[C@H](O)[C@@H](NC(=O)c4ccccc4)c4ccccc4)C(C)=C1C3(C)C)[C@]1(OC(C)=O)CO[C@@H]1C[C@@H]2O ... 18

Input CCC(Cc1cnc2nc(N)nc(N)c2n1)c1ccc(C(=O)N[C@@H](CCC(=O)O)C(=O)O)cc1 (stereo partly drawn) . Output MTD: 100
